The origin of these recorded values is patent US20260327264A1.

test: Peptide stability in simulated gastric fluid (SGF); assay type: in vitro ADME; conditions: pig, 1 h, pH 1.2, pepsin, 37° C.
readout: remaining at 1 h, 10 µM (%)
Your answer is read as %, so omit the unit and give the number.

Enquiry: // remaining at 1 h, 10 µM lookup, key: CNC(=O)[C@H](Cc1cccnc1)NC(=O)C1(NC(=O)[C@@H]2CCC(=O)NCc3ccc(cc3)CC(=O)N[C@@H](CO)C(=O)N[C@H]3CCC(=O)NCC[C@H](NC(=O)[C@H](CCC(N)=O)NC(=O)[C@H](Cc4c[nH]c5ccccc45)NC3=O)C(=O)N[C@@H](Cc3ccc(OCCN)cc3)C(=O)N[C@@H](Cc3ccc4ccccc4c3)C(=O)N[C@@](C)(CC(C)C)C(=O)N2)CCOCC1 [Compound 35]
Return: 101

* * *

Each item that follows carries a reported Emax.
Target: human IL-23R (Homo sapiens, UniProt Q5VWK5)
Construct: Nanoluc luciferase (Nluc); secretion signal encoded by the plasmid (not specified); expressed in transfected cells; crude membranes used in the assay
Sequence (Q5VWK5 22-629): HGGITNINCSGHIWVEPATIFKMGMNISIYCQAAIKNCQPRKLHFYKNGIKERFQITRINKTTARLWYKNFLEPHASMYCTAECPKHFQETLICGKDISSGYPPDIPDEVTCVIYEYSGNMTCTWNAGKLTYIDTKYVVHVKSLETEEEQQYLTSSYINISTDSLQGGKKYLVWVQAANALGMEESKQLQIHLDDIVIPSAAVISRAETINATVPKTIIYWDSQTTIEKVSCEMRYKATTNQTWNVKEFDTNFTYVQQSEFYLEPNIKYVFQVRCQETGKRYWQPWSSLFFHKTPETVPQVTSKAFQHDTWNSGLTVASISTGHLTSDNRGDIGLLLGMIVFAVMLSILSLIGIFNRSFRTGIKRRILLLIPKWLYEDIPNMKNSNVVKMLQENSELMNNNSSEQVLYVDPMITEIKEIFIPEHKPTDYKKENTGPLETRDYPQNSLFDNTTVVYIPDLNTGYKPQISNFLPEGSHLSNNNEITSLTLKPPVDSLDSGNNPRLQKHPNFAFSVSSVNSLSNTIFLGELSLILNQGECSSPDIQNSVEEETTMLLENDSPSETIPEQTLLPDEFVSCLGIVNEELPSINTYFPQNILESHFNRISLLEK
Test: Binding assay: displacement of fluorophore (TAMRA)-labelled reference compound from human IL-23R (BRET, Nluc-IL23R fusion protein membranes)
Settings: read-out: % displacement (hIL-23R binding)
*1 amine or outer side, *2 acyl side, *3 side chain or, on linkers, in order; H or OH if unused. Where a SMILES comes first, the peptide text is derived from it. Bridges are numbered along the chain shown (N, C = ends). [ ]: non-standard residue; d: D form. 2Nal = N[C@@H](Cc1ccc2ccccc2c1)C(=O)O; AEF = NCCOc1ccc(C[C@H](N)C(=O)O)cc1; X1 = O=C(Cc1ccc(CN[*:1])cc1)[*:2]; 3Pal = N[C@@H](Cc1cccnc1)C(=O)O; αMeL = CC(C)C[C@](C)(N)C(=O)O; Dab = NCC[C@H](N)C(=O)O; Sar = CNCC(=O)O
Please state the figure in %; there is no need to write the unit.

CC(C)C[C@]1(C)NC(=O)[C@H](Cc2ccc3ccccc3c2)NC(=O)[C@H](Cc2ccc(OCCN)cc2)NC(=O)[C@@H]2CCNC(=O)CC[C@H](NC(=O)[C@H](CO)NC(=O)Cc3ccc(cc3)CNC(=O)CC[C@@H](C(=O)N[C@@H](CCN)C(=O)N[C@@H](Cc3cccnc3)C(=O)N(C)CC(N)=O)NC1=O)C(=O)N[C@@H](Cc1c[nH]c3ccccc13)C(=O)N[C@@H](CCC(N)=O)C(=O)N2 [Compound 9] ([X1]SEWQ[Dab][AEF][2Nal][αMeL]E[Dab][3Pal][Sar]-NH2; lactam 3-6, N-10) = 100
CNC(=O)[C@H](Cc1cccnc1)NC(=O)[C@H](CCN)NC(=O)[C@@H]1CCC(=O)NCc2ccc(cc2)CC(=O)N[C@@H](C)C(=O)N[C@H]2CCC(=O)NCC[C@H](NC(=O)[C@H](CCC(N)=O)NC(=O)[C@H](Cc3c[nH]c4ccccc34)NC2=O)C(=O)N[C@@H](Cc2c[nH]c3ncccc23)C(=O)N[C@@H](Cc2ccc3ccccc3c2)C(=O)NC(C)(C)C(=O)N1 = 101

Enquiry: Emax lookup needed for CNC(=O)[C@H](Cc1cccnc1)NC(=O)[C@H](CCN)NC(=O)[C@@H]1CCC(=O)NCc2ccc(cc2)CC(=O)N[C@@H](CO)C(=O)N[C@H]2CCC(=O)NCC[C@H](NC(=O)[C@H](CCC(=O)N(C)C)NC(=O)[C@H](Cc3c[nH]c4ccccc34)NC2=O)C(=O)N[C@@H](Cc2ccc(OCCN)cc2)C(=O)N[C@@H](Cc2ccc3ccccc3c2)C(=O)N[C@@](C)(CC(C)C)C(=O)N1 [Compound 30] ([X1]SEWE(NMe2)[Dab][AEF][2Nal][αMeL]E[Dab][3Pal]-NHMe; lactam 3-6, N-10) , thanks.
Return: 104

* * *

experiment: Peptide stability in simulated intestinal fluid (SIF); assay type: in vitro ADME; details: pig, simulated intestinal fluid; SIF, 4 h, pH 6.8, pancreatin, 37° C., 10 μM; read-out: SIF (% remaining 4 h)
*1 amine or outer side, *2 acyl side, *3 side chain or, on linkers, in order; H or OH if unused. Where a SMILES comes first, the peptide text is derived from it. Bridges are numbered along the chain shown (N, C = ends). [ ]: non-standard residue; d: D form. The star is where a group is joined. 2Nal = N[C@@H](Cc1ccc2ccccc2c1)C(=O)O; AEF = NCCOc1ccc(C[C@H](N)C(=O)O)cc1; X1 = O=C(Cc1ccc(CN[*:1])cc1)[*:2]; 3Pal = N[C@@H](Cc1cccnc1)C(=O)O; αMeL = CC(C)C[C@](C)(N)C(=O)O; Pyrrolidide = C1CCN(*)C1; Dab = NCC[C@H](N)C(=O)O
Entries and their remaining at 4 h, 10 µM values follow.
Form entry: value (%) — number only.

Worked set:
CNC(=O)[C@H](Cc1cccnc1)NC(=O)[C@H](CCN)NC(=O)[C@@H]1CCC(=O)NCc2ccc(cc2)CC(=O)N[C@@H](C)C(=O)N[C@H]2CCC(=O)NCC[C@H](NC(=O)[C@H](CCC(N)=O)NC(=O)[C@H](Cc3c[nH]c4ccccc34)NC2=O)C(=O)N[C@@H](Cc2cnc3ccccc3c2)C(=O)N[C@@H](Cc2ccc3ccccc3c2)C(=O)NC(C)(C)C(=O)N1 = 95
CNC(=O)[C@H](Cc1cccnc1)NC(=O)[C@H](CCN)NC(=O)[C@@H]1CCC(=O)NCc2ccc(cc2)CC(=O)N[C@@H](CO)C(=O)N[C@H]2CCC(=O)NCC[C@H](NC(=O)[C@H](CCCCNC(C)=O)NC(=O)[C@H](Cc3c[nH]c4ccccc34)NC2=O)C(=O)N[C@@H](Cc2ccc(OCCN)cc2)C(=O)N[C@@H](Cc2ccc3ccccc3c2)C(=O)N[C@@](C)(CC(C)C)C(=O)N1 [Compound 24] ([X1]SEWK(Ac)[Dab][AEF][2Nal][αMeL]E[Dab][3Pal]-NHMe; lactam 3-6, N-10) = 89
CNC(=O)[C@H](Cc1cccnc1)NC(=O)[C@H](CCN)NC(=O)[C@@H]1CCC(=O)NCc2ccc(cc2)CC(=O)N[C@@H](CO)C(=O)N[C@H]2CCC(=O)NCC[C@H](NC(=O)[C@H](CCC(=O)N3CCCC3)NC(=O)[C@H](Cc3c[nH]c4ccccc34)NC2=O)C(=O)N[C@@H](Cc2ccc(OCCN)cc2)C(=O)N[C@@H](Cc2ccc3ccccc3c2)C(=O)N[C@@](C)(CC(C)C)C(=O)N1 [Compound 27] ([X1]SEWE(Pyrrolidide)[Dab][AEF][2Nal][αMeL]E[Dab][3Pal]-NHMe; lactam 3-6, N-10) = 85

// next entry
Enquiry: Need remaining at 4 h, 10 µM, item `CNC(=O)[C@H](Cc1cccnc1)NC(=O)[C@H](CCN)NC(=O)[C@@H]1CCC(=O)NCc2ccc(cc2)CC(=O)N[C@@H](C)C(=O)N[C@H]2CCC(=O)NCC[C@H](NC(=O)[C@H](CCC(N)=O)NC(=O)[C@H](Cc3c[nH]c4ccccc34)NC2=O)C(=O)N[C@@H](Cc2ccc(OCCN)cc2)C(=O)N[C@@H](Cc2cnc3ccccc3c2)C(=O)NC(C)(C)C(=O)N1`
Return: 89

* * *

Property: IC50; scope: individual molecules
tested on: IL-23 mediated STAT3 signalling (DB cells); test: Functional inhibition of IL-23 mediated STAT3 signalling (phospho-STAT3 Tyr705) in DB cells; type: cell-based, human; settings: Table 3-2, EC80 of hIL-23, read-out: hIL-23 (pSTAT3) antagonist IC50
*1 amine or outer side, *2 acyl side, *3 side chain or, on linkers, in order; H or OH if unused. Where a SMILES comes first, the peptide text is derived from it. Bridges are numbered along the chain shown (N, C = ends). [ ]: non-standard residue; d: D form. 2Nal = N[C@@H](Cc1ccc2ccccc2c1)C(=O)O; AEF = NCCOc1ccc(C[C@H](N)C(=O)O)cc1; X1 = O=C(Cc1ccc(CN[*:1])cc1)[*:2]; 3Pal = N[C@@H](Cc1cccnc1)C(=O)O; αMeL = CC(C)C[C@](C)(N)C(=O)O; Orn = NCCC[C@H](N)C(=O)O; Dab = NCC[C@H](N)C(=O)O
Response body: numeric value in nM, unit text excluded.

Worked examples follow.
CNC(=O)[C@H](Cc1cccnc1)NC(=O)[C@H](CCN)NC(=O)[C@@H]1CCC(=O)NCc2ccc(cc2)CC(=O)N[C@@H](CO)C(=O)N[C@H]2CCC(=O)NCC[C@H](NC(=O)[C@H](Cc3ccccc3)NC(=O)[C@H](Cc3c[nH]c4ccccc34)NC2=O)C(=O)N[C@@H](Cc2ccc(OCCN)cc2)C(=O)N[C@@H](Cc2ccc3ccccc3c2)C(=O)N[C@@](C)(CC(C)C)C(=O)N1 [Compound 23] ([X1]SEWF[Dab][AEF][2Nal][αMeL]E[Dab][3Pal]-NHMe; lactam 3-6, N-10) = 5.2
CC(C)C[C@]1(C)NC(=O)[C@H](Cc2ccc3ccccc3c2)NC(=O)[C@H](Cc2ccc(OCCN)cc2)NC(=O)[C@@H]2CCNC(=O)CC[C@H](NC(=O)[C@H](CO)NC(=O)Cc3ccc(cc3)CNC(=O)CC[C@@H](C(=O)NCC[C@H](N)C(=O)N[C@@](C)(Cc3cccnc3)C(N)=O)NC1=O)C(=O)N[C@@H](Cc1c[nH]c3ccccc13)C(=O)N[C@@H](CCC(N)=O)C(=O)N2 [Compound 15] = 12
CNC(=O)[C@H](Cc1cccnc1)NC(=O)[C@H](CCN)NC(=O)[C@@H]1CCC(=O)NCc2ccc(cc2)CC(=O)N[C@@H](CO)C(=O)N[C@H]2CCC(=O)NCC[C@H](NC(=O)[C@H](CCCN)NC(=O)[C@H](Cc3c[nH]c4ccccc34)NC2=O)C(=O)N[C@@H](Cc2ccc(OCCN)cc2)C(=O)N[C@@H](Cc2ccc3ccccc3c2)C(=O)N[C@@](C)(CC(C)C)C(=O)N1 [Compound 28] ([X1]SEW[Orn][Dab][AEF][2Nal][αMeL]E[Dab][3Pal]-NHMe; lactam 3-6, N-10) = 0.052
CC(C)C[C@]1(C)NC(=O)[C@H](Cc2ccc3ccccc3c2)NC(=O)[C@H](Cc2ccc(OCCN)cc2)NC(=O)[C@@H]2CCNC(=O)CC[C@H](NC(=O)[C@H](CO)NC(=O)Cc3ccc(cc3)CNC(=O)CC[C@@H](C(=O)N[C@@H](CCN)C(=O)N(C)[C@@H](Cc3cccnc3)C(N)=O)NC1=O)C(=O)N[C@@H](Cc1c[nH]c3ccccc13)C(=O)N[C@@H](CCC(N)=O)C(=O)N2 [Compound 4] = 6.5
CNC(=O)[C@H](Cc1cncnc1)NC(=O)[C@H](CCN)NC(=O)[C@@H]1CCC(=O)NCc2ccc(cc2)CC(=O)N[C@@H](CO)C(=O)N[C@H]2CCC(=O)NCC[C@H](NC(=O)[C@H](CCC(N)=O)NC(=O)[C@H](Cc3c[nH]c4ccccc34)NC2=O)C(=O)N[C@@H](Cc2ccc(OCCN)cc2)C(=O)N[C@@H](Cc2ccc3ccccc3c2)C(=O)N[C@@](C)(CC(C)C)C(=O)N1 [Compound 19] = 0.16
CNC(=O)[C@H](Cc1cccnc1)NC(=O)[C@H](CCN)NC(=O)[C@@H]1CCC(=O)NCc2ccc(cc2)CC(=O)N[C@@H](C)C(=O)N[C@H]2CCC(=O)NCC[C@H](NC(=O)[C@H](CCC(N)=O)NC(=O)[C@H](Cc3c[nH]c4ccccc34)NC2=O)C(=O)N[C@@H](Cc2c[nH]c3c(F)cccc23)C(=O)N[C@@H](Cc2ccc3ccccc3c2)C(=O)NC(C)(C)C(=O)N1 [Compound 47] = 0.33
CNC(=O)[C@H](Cc1cccnc1)NC(=O)[C@H](CCN)NC(=O)[C@@H]1CCC(=O)NCc2ccc(cc2)CC(=O)N[C@@H](C)C(=O)N[C@H]2CCC(=O)NCC[C@H](NC(=O)[C@H](CCC(N)=O)NC(=O)[C@H](Cc3c[nH]c4ccccc34)NC2=O)C(=O)N[C@@H](Cc2ccc(OCCN)cc2)C(=O)N[C@@H](Cc2ccc3ccccc3c2)C(=O)N[C@@](C)(CC(C)C)C(=O)N1 [Compound 20] = 0.026
CNC(=O)[C@H](Cc1cccnc1)NC(=O)[C@H](CCN)NC(=O)[C@@H]1CCC(=O)NCc2ccc(cc2)CC(=O)N[C@@H](C)C(=O)N[C@H]2CCC(=O)NCC[C@H](NC(=O)[C@H](CCC(N)=O)NC(=O)[C@H](Cc3c[nH]c4ccccc34)NC2=O)C(=O)N[C@@H](Cc2ccc(N3CCOCC3)cc2)C(=O)N[C@@H](Cc2ccc3ccccc3c2)C(=O)NC(C)(C)C(=O)N1 [Compound 51] = 0.38

Enquiry: Using the record for CC(C)C[C@]1(C)NC(=O)[C@H](Cc2ccc3ccccc3c2)NC(=O)[C@H](Cc2ccc(OCCN)cc2)NC(=O)[C@@H]2CCNC(=O)CC[C@H](NC(=O)[C@H](CO)NC(=O)Cc3ccc(cc3)CNC(=O)CC[C@@H](C(=O)N[C@@H](CCN)C(=O)NCCCCc3cccnc3)NC1=O)C(=O)N[C@@H](Cc1c[nH]c3ccccc13)C(=O)N[C@@H](CCC(N)=O)C(=O)N2 [Compound 6] , report its IC50.
Return: 3.2
